biological target: rat recombinant D3 receptors (expressed in Sf9 cells) (Rattus norvegicus, UniProt P19020); experiment: D3 receptor binding, [3H]-spiperone; conditions: rat recombinant D3, [3H]-spiperone 0.85 nM; read-out: rD3 Ki
Sequence (P19020 whole entry): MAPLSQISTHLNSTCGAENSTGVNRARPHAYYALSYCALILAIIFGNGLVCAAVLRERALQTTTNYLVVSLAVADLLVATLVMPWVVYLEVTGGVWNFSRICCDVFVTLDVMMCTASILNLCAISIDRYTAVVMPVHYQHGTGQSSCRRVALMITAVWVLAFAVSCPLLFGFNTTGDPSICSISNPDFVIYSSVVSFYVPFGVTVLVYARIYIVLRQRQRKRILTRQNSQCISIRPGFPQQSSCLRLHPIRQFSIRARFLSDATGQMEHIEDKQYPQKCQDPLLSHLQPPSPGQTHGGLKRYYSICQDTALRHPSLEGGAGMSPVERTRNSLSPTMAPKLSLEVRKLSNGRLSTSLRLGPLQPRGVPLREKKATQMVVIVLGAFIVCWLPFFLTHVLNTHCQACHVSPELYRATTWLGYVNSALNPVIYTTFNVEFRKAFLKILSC
Parameter measured: pKi
One number for each entry, as −log10 of the molar value.

Here's what some known entries look like.
Compound | Parameter measured | Val
CNC(=O)N[C@H]1CC[C@H](CCN2CCN(c3ccc(O)c(Cl)c3Cl)CC2)CC1 [Compound B] | pKi | 9.62
CN(C)C(=O)N[C@H]1CC[C@H](CCN2CCN(c3ccc(O)c(Cl)c3Cl)CC2)CC1 [Compound C] | pKi | 9.43

We next turn to a different compound, shown below.
Qu. State its pKi on rat recombinant D3 receptors (expressed in Sf9 cells) (Rattus norvegicus, UniProt P19020): NC(=O)N[C@H]1CC[C@H](CCN2CCN(c3ccc(O)c(Cl)c3Cl)CC2)CC1 [Compound A]
Ans. 9.59

----------
molecular target: D2 receptor (rat brain striatal membrane preparation) (Rattus norvegicus, UniProt P61169); construct: on rat brain striatal membrane preparation; experiment: D2 receptor binding, [3H]-spiperone; conditions: rat brain striatal membranes, [3H]-spiperone 0.6 nM; read-out: rD2 Ki
Sequence (P61169 whole entry): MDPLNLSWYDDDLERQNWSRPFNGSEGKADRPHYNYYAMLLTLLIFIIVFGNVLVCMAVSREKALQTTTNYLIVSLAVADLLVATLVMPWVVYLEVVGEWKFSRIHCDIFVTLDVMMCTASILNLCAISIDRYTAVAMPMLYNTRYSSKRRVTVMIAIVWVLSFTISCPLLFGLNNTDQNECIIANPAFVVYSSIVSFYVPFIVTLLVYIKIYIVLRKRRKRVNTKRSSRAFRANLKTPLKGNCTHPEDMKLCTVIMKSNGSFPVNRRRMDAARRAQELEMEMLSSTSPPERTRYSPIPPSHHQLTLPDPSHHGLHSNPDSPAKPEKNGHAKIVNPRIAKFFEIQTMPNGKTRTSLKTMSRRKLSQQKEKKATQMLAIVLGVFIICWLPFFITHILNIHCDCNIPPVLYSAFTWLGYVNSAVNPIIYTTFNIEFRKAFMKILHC
Give measured Ki for each item. Keep answers brief.
Answers are plain numbers, in nM.

Here's what some known entries look like.
Sample smiles | Ki (nM)
CN(C)C(=O)N[C@H]1CC[C@H](CCN2CCN(c3ccc(O)c(Cl)c3Cl)CC2)CC1 | 80.5
CNC(=O)N[C@H]1CC[C@H](CCN2CCN(c3ccc(O)c(Cl)c3Cl)CC2)CC1 | 2.49

We next turn to a different compound, shown below.
Qu. Look at this compound and give its reported Ki. `NC(=O)N[C@H]1CC[C@H](CCN2CCN(c3ccc(O)c(Cl)c3Cl)CC2)CC1`
Ans. 8.4
